TESTED_SYSTEM: Stimulator of interferon genes protein [1-379,R71H,G230A,H232R,R293Q] (Homo sapiens, UniProt Q86WV6, G230A/H232R/R293Q/R71H)
Construct: 1-379
Sequence (Q86WV6 whole entry R71H/G230A/H232R/R293Q, looked up): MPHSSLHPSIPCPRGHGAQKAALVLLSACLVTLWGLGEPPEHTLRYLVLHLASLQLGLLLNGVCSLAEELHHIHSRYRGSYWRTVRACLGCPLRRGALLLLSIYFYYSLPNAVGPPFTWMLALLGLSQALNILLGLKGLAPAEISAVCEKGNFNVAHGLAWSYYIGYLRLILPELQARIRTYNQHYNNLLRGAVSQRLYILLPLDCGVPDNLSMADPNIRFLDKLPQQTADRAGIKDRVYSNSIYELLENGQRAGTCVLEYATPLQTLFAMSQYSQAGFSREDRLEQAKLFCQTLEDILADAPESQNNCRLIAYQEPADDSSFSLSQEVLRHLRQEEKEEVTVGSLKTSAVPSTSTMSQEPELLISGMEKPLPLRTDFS
TEST_NAME: Surface Plasmon Resonance (SPR)
MEASUREMENT_LABEL: Kd (µM)

Recorded results for 5 molecules are shown here.
MOLECULE	Kd, µM
COc1c(C(N)=O)ccc2c1nc(-c1ccc(Cl)cc1C(=O)O)n2CCCn1c(-c2ccc(Cl)cc2C(=O)O)nc2c(OC)c(C(N)=O)ccc21 [US12415785, Example 35]	35
COc1c(C(N)=O)ccc2c1nc(-c1ccc(Cl)cc1C(=O)O)n2C/C=C/Cn1c(-c2ccc(Cl)cc2C(=O)O)nc2c(OC)c(C(N)=O)ccc21 [US12415785, Example 34]	26
COC(=O)c1c(Br)cccc1-c1nc2c(OC)c(C(N)=O)ccc2n1CCn1c(-c2cccc(Br)c2C(=O)OC)nc2c(OC)c(C(N)=O)ccc21 [US12415785, Example 21]	1.09
COc1c(C(N)=O)ccc2c1nc(-c1c(F)cccc1-c1n[nH]c(=O)o1)n2CCn1c(-c2c(F)cccc2-c2n[nH]c(=O)o2)nc2c(OC)c(C(N)=O)ccc21 [US12415785, Example 49]	0.031
COc1c(C(N)=O)ccc2c1nc(-c1c(F)cc(F)cc1-c1nn[nH]n1)n2CCn1c(-c2c(F)cc(F)cc2-c2nn[nH]n2)nc2c(OC)c(C(N)=O)ccc21 [US12415785, Example 43]	0.096

1: COc1c(C(N)=O)ccc2c1nc(-c1cc(Cl)ccc1-c1nn[nH]n1)n2CCn1c(-c2cc(Cl)ccc2-c2nn[nH]n2)nc2c(OC)c(C(N)=O)ccc21 [US12415785, Example 42]
2: COc1c(C(N)=O)ccc2c1nc(-c1cnccc1C(=O)O)n2CCn1c(-c2cnccc2C(=O)O)nc2c(OC)c(C(N)=O)ccc21 [US12415785, Example 30]
Please let me know which one, 1 or 2 , has a lower measured Kd value. Lab log: write the label of the selected item as the result.
1
